# Target: 5-HT2A (Homo sapiens)
# Sequence (P28223 whole entry): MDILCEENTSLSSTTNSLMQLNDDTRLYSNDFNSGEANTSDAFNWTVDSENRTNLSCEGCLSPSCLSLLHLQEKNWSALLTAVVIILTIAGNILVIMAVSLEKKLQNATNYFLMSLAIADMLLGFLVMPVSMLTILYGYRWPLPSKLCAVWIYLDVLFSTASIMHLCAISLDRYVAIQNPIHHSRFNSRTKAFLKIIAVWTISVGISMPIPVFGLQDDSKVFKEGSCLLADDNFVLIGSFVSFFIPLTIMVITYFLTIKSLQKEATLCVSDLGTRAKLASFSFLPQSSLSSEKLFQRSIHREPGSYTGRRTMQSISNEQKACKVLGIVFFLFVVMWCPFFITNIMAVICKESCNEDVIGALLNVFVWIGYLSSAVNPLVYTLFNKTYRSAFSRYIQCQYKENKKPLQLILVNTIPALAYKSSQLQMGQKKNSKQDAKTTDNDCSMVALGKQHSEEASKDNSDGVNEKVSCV
# Assay: Serotonin 5-HT2A in vitro cellular IPOne agonism assay
# Type: cell-based
# Set-up: host or cells: CHO-K1
# Experimental Context: benzofurans; CHO-K1 cells, 60 min
Assay Endpoint: EC50

Ask: Give the measured EC50 for Fc1cccc2oc3c(c12)CN(CC(F)(F)F)CCC3
Reply: > 10 µM

Hi team, please reply with EC50 for each item in this list.
1. CN1CCCc2oc3cc(F)ccc3c2C1
2. COc1ccc2c3c(oc2c1)CCCN(C)C3
3. CN1CCCc2oc3cc(OCc4ccccc4)ccc3c2C1
4. c1ccc2c3c(oc2c1)CCCN(C1CCC1)C3
5. COc1ccc2c3c(oc2c1)CCNCC3

Reply:
1. 1 to 10 µM
2. > 10 µM
3. > 10 µM
4. > 10 µM
5. 1 to 10 µM
